System: MAPK phosphorylation in the PANC-1 pancreatic cancer cell line
Test: MAPK cell-based phosphorylation assay (cell-direct ELISA, EGF-stimulated PANC-1)
Conditions: Homo sapiens; 30 μM, PANC-1, 6 hours incubation, EGF stimulation
quantity.measured: inhibition at 30 µM

Per the record, COC(=O)c1cc(NCc2nc(CC(C)C)no2)ccc1Cl has inhibition at 30 µM of 1 to 25%

Next:
Noted for Cc1nc(-c2ccccn2)nc(O)c1CCC(=O)Nc1ccc(C(C)C)cc1 : its inhibition at 30 µM reads 1 to 25%

inhibition at 30 µM measured on COOCCCCNC(=O)c1csc2nc(-c3ccccn3)nc(N3CCOCC3)c12 = 1 to 25%

Looking up N#Cc1ccc(CC(=O)Nc2ccnc(-c3ccccn3)n2)cc1 , I see its inhibition at 30 µM listed as 1 to 25%

----------
Biological target: KRas G12D/Q61H double mutant (Homo sapiens (Human), UniProt P01116, G12D/Q61H)
Sequence (P01116-2 other isoform, or with tags, fused parts or gaps G12D/Q61H): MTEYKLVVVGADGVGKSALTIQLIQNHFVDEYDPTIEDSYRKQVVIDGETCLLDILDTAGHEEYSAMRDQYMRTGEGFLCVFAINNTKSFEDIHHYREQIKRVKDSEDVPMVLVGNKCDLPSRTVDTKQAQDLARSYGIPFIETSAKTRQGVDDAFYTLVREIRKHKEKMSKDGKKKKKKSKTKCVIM
Experiment: Ras GTP binding domain inhibition assay (labeled GTP)
Conditions: 20 μM compound; read-out: % Inhibition at 20 μM, KRas G12D Q61H
quantity.measured: inhibition at 20 µM

Please review the following examples before continuing.
Per the reported KRas G12D/Q61H double mutant (Homo sapiens (Human), UniProt P01116, G12D/Q61H) data, OC[C@H]1O[C@@H](c2csc3c2N=C(c2ccccn2)NC3O)[C@H](O)[C@@H]1O (some centres unmarked) has inhibition at 20 µM of 25 to 50%

For the compound Cn1cnc(-c2nc(O)c3c(C4C=CC=CC4)c(-c4ccncc4)sc3n2)c1 (centres unmarked) , the measured inhibition at 20 µM on KRas G12D/Q61H double mutant (Homo sapiens (Human), UniProt P01116, G12D/Q61H) was 1 to 25%

Case CC(C)c1cnc(CN2CC(C)N(Cc3ncc(C(C)C)o3)c3ccccc32)o1 (centres unmarked) , KRas G12D/Q61H double mutant (Homo sapiens (Human), UniProt P01116, G12D/Q61H), inhibition at 20 µM recorded as 25 to 50%

The reported inhibition at 20 µM value, KRas G12D/Q61H double mutant (Homo sapiens (Human), UniProt P01116, G12D/Q61H), for COCCN(Cc1ccccc1)CC(O)OCC(c1ccc(OC)cc1)c1ccc(OC)cc1 (centres unmarked) reads 1 to 25%

---
Sample CCOc1cc(CN(C(=O)CCc2nc(-c3ccsc3)no2)C2CC2)ccc1OC(F)F , system: KRas G12D/Q61H double mutant (Homo sapiens (Human), UniProt P01116, G12D/Q61H). Its inhibition at 20 µM is 25 to 50%

// compound Cc1cc(OC(C)COc2ccc(Oc3ccccc3)cc2)ncc1C(F)(F)F (centres unmarked) , assay KRas G12D/Q61H double mutant (Homo sapiens (Human), UniProt P01116, G12D/Q61H), inhibition at 20 µM value: 51 to 75%

Bench note, KRas G12D/Q61H double mutant (Homo sapiens (Human), UniProt P01116, G12D/Q61H): OCC1(Cc2ccccc2)CCCN1c1nc(-c2ccccc2)nc2c1CCC2 (centres unmarked) , inhibition at 20 µM reads 25 to 50%

----------
Test system: MIA-PACA2 pancreatic cancer cell lines
Assay: Cell proliferation assay, MIA-PACA2, alternate assay conditions (DAPI staining, 4 days)
Format: cell-based
Details: Homo sapiens, MIA PaCa-2, 96 h; tested at 10 μM (*), 4 days, alternate conditions
inhibition at 10 µM by entry:

For orientation, consider the following solved cases.
Observed inhibition at 10 µM on MIA-PACA2 pancreatic cancer cell lines, entry Cc1cccc(-c2c(-c3ccccc3)sc3c(O)nc(-c4nccn4C)nc23)c1 , equals 25 to 50%

Considering Oc1cccc(-c2csc3c(O)nc(-c4ccccn4)nc23)n1 , its inhibition at 10 µM with MIA-PACA2 pancreatic cancer cell lines was recorded as 76 to 100%

Tested on MIA-PACA2 pancreatic cancer cell lines: COCC(C)Nc1nc(-c2ncccn2)nc2sc(-c3ccncc3)c(-c3ccccc3)c12 (stereo not shown) . Observed inhibition at 10 µM: 51 to 75%

Please examine the following record next.
Measured inhibition at 10 µM (MIA-PACA2 pancreatic cancer cell lines), entry COc1ccc(-c2c(-c3ccccc3)sc3c(O)nc(-c4cccn4C)nc23)cn1 : 76 to 100%
